Listed binders paired with reported n-fold to wt
molecular target: T1, human a-Mesothelin (Acro Biosystems; MSN_H5223) (human, UniProt Q13421 296-580, limits assumed); assay: SPR, mesothelin immobilised, scFv analyte, 1:1 fit
T1 construct: Bought protein immobilised on the SPR chip; Printed as 'a-Mesothelin' but used as the antigen for the anti-MSLN scFvs; also called Human MSLN; MSLN
T1 sequence (Q13421 other isoform, or with tags, fused parts or gaps limits assumed): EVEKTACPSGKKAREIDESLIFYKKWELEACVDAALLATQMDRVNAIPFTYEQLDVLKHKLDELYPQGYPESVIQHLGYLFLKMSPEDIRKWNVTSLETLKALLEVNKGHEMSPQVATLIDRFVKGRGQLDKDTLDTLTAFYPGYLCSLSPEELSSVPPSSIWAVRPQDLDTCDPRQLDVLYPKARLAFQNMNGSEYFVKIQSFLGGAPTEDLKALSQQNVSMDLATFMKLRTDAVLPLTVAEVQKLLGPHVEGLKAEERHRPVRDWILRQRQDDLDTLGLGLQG
Give the value; after it, write the unit.

BINDER	n-fold to wt
PRO3321 (scFv 54-21-H03-sc01_(L12R, T101S, L144A, T146Q)) (scFv, PRO1922 variant; VH substitutions, AHo numbering; also called PRO1922 L12R-T101S-L144A-T146Q) scFv: DIQMTQSPSSLSASVGDRVTITCQASESIYSSLAWYQQKPGKAPKLLIYLASTLASGVPSRFSGSGSGTDFTLTISSLQPEDFATYYCQSTDYTTSTHRNSFGTGTKVTVLGGGGGSGGGGSGGGGSGGGGSEVQLVESGGGRVQPGGSLRLSCAASGFSFSTTYYMCWVRQAPGKGLEWIGCTNTASSVRTYYATWAKGRFTISRDNSKNTVYLQMNSLRAEDSAVYYCARDMGFADYALNLWGQGTAVQVSS	0.9 fold
PRO3320 (scFv 54-21-H03-sc01_(L12A, T101S, L144K, T146Q)) (scFv, PRO1922 variant; VH substitutions, AHo numbering; also called PRO1922 L12A-T101S-L144K-T146Q) scFv: DIQMTQSPSSLSASVGDRVTITCQASESIYSSLAWYQQKPGKAPKLLIYLASTLASGVPSRFSGSGSGTDFTLTISSLQPEDFATYYCQSTDYTTSTHRNSFGTGTKVTVLGGGGGSGGGGSGGGGSGGGGSEVQLVESGGGAVQPGGSLRLSCAASGFSFSTTYYMCWVRQAPGKGLEWIGCTNTASSVRTYYATWAKGRFTISRDNSKNTVYLQMNSLRAEDSAVYYCARDMGFADYALNLWGQGTKVQVSS	0.9 fold
PRO3319 (scFv 54-21-H03-sc01_(L12A, T101S, L144A, T146R)) (scFv, PRO1922 variant; VH substitutions, AHo numbering; also called PRO1922 L12A-T101S-L144A-T146R) scFv: DIQMTQSPSSLSASVGDRVTITCQASESIYSSLAWYQQKPGKAPKLLIYLASTLASGVPSRFSGSGSGTDFTLTISSLQPEDFATYYCQSTDYTTSTHRNSFGTGTKVTVLGGGGGSGGGGSGGGGSGGGGSEVQLVESGGGAVQPGGSLRLSCAASGFSFSTTYYMCWVRQAPGKGLEWIGCTNTASSVRTYYATWAKGRFTISRDNSKNTVYLQMNSLRAEDSAVYYCARDMGFADYALNLWGQGTAVRVSS	1.4 fold
PRO3348 (scFv 54-21-H03-sc01_(T101K, T146D)) (scFv, PRO1922 variant; VH substitutions, AHo numbering; also called PRO1922 T101K-T146D) scFv: DIQMTQSPSSLSASVGDRVTITCQASESIYSSLAWYQQKPGKAPKLLIYLASTLASGVPSRFSGSGSGTDFTLTISSLQPEDFATYYCQSTDYTTSTHRNSFGTGTKVTVLGGGGGSGGGGSGGGGSGGGGSEVQLVESGGGLVQPGGSLRLSCAASGFSFSTTYYMCWVRQAPGKGLEWIGCTNTASSVRTYYATWAKGRFTISRDNSKNTVYLQMNSLRAEDKAVYYCARDMGFADYALNLWGQGTLVDVSS	1.4 fold

Below: the item to evaluate.
Could you share which n-fold to wt value was measured for PRO2944 (scFv 54-21-H03-sc01_(T146Q)) (scFv, PRO1922 variant; VH substitution, AHo numbering; also called PRO1922 T146Q) scFv: DIQMTQSPSSLSASVGDRVTITCQASESIYSSLAWYQQKPGKAPKLLIYLASTLASGVPSRFSGSGSGTDFTLTISSLQPEDFATYYCQSTDYTTSTHRNSFGTGTKVTVLGGGGGSGGGGSGGGGSGGGGSEVQLVESGGGLVQPGGSLRLSCAASGFSFSTTYYMCWVRQAPGKGLEWIGCTNTASSVRTYYATWAKGRFTISRDNSKNTVYLQMNSLRAEDTAVYYCARDMGFADYALNLWGQGTLVQVSS ? 1 fold
